As shown below, each of these compounds has a reported pIC50 value.
assayed_target: human GnRHR I (Homo sapiens, UniProt P30968)
Construct: expressed in transfected cells
Sequence (P30968 1-328): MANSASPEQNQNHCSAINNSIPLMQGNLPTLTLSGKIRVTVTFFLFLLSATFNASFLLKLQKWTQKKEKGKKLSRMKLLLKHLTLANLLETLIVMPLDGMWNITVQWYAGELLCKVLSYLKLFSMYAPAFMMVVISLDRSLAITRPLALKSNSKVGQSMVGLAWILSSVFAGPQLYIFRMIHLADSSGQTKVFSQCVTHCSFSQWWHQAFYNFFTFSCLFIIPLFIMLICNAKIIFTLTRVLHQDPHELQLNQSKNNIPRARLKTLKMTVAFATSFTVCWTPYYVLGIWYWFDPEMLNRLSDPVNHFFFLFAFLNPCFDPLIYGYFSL
protocol: Competitive radioligand binding (125I-DTyr6-His5-GnRH) on membranes from HEK 293 cells stably expressing GnRHR I
run_parameters: competition with 125I-DTyr6-His5-GnRH, HEK 293 membranes, 4 °C 16-19 h, one-site model; read-out: apparent binding affinity (IC50)
pIC50: −log10 of the molar value.
property_label: pIC50

[[record]]
compound = "CCNC(=O)[C@@H]1CCCN1C(=O)[C@H](CCCNC(=N)N)NC(=O)[C@H](CC(C)C)NC(=O)[C@@H](CCCCNC(=O)CCCCCNC(=O)CCSSCC(=O)NCCCCNc1ccc(O)c2c1C(=O)c1ccccc1C2=O)NC(=O)[C@H](Cc1ccc(O)cc1)NC(=O)[C@H](CO)NC(=O)[C@H](Cc1c[nH]c2ccccc12)NC(=O)[C@H](Cc1c[nH]cn1)NC(=O)[C@@H]1CCC(=O)N1"
assayed_target = "human GnRHR I (Homo sapiens, UniProt P30968)"
reading = 10.15

[[record]]
compound = "CCNC(=O)[C@@H]1CCCN1C(=O)[C@H](CCCNC(=N)N)NC(=O)[C@H](CC(C)C)NC(=O)[C@@H](CS)NC(=O)[C@H](Cc1ccc(O)cc1)NC(=O)[C@H](CO)NC(=O)[C@H](Cc1c[nH]c2ccccc12)NC(=O)[C@H](Cc1c[nH]cn1)NC(=O)[C@@H]1CCC(=O)N1 [analogue 2, [DCys^6, Pro^9-NHEt]GnRH]"
assayed_target = "human GnRHR I (Homo sapiens, UniProt P30968)"
reading = 9.15

[[record]]
compound = "CCNC(=O)[C@@H]1CCCN1C(=O)[C@H](CCCNC(=N)N)NC(=O)[C@H](CC(C)C)NC(=O)[C@@H](CCCCN)NC(=O)[C@H](Cc1ccc(O)cc1)NC(=O)[C@H](CO)NC(=O)[C@H](Cc1c[nH]c2ccccc12)NC(=O)[C@H](Cc1c[nH]cn1)NC(=O)[C@@H]1CCC(=O)N1"
assayed_target = "human GnRHR I (Homo sapiens, UniProt P30968)"
reading = 8.60

